Collected IC50 for UniProtKB P04626 across several studies; compounds listed below.

- molecule smiles: "CN(C)Cc1ccc(-c2cc3c(Nc4ccc(=O)[nH]c4)ncnc3[nH]2)cc1"
  readout value: "15.5 nM"
- molecule smiles: "CC(C)c1nc(-c2cc(F)c(F)c(NS(=O)(=O)c3cccc(F)c3)c2)c(-c2ccnc(Nc3ccc(N4CCN(CCF)CC4)c(F)c3)n2)s1"
  readout value: "100 to 1000 nM"
- molecule smiles: "COc1cc(Nc2ncnc(-n3c(Nc4ccc(OC(F)(F)F)cc4)nc4ccccc43)n2)cc(OC)c1OC"
  readout value: "4340 to 6320 nM"

Turning now to a further compound:
Lab note: need IC50 for COC(=O)c1ccc(N(C)c2ncnc(Nc3ccc(OC)c(OC)c3)n2)cc1 on UniProtKB P04626, anyone have it?
> 11400 nM

* * *

Collected pIC50 for Receptor tyrosine-protein kinase erbB-2 (Homo sapiens) across several studies; molecules listed below.
pIC50: −log10 of the molar value.

- molecule smiles: "CN(C)C/C=C/C(=O)N1CCOc2c1ccc1ncnc(Nc3ccc(Oc4ccccc4)cc3)c21"
  readout value: "≥ 7.30"

Would you be so kind as to report pIC50 for each listed record?
1. CC#CC(=O)NCCCC(=O)c1nc(-c2ccc(C(=O)Nc3ccccn3)cc2)c2c(N)nccn12
2. CON=Cc1c(N)ncnc1NCc1ccc(OC)c(OC)c1
3. C=CC(=O)N1CCOc2c1ccc1ncnc(Nc3ccc(OCc4cccc(C(F)(F)F)c4)cc3)c21
4. Cc1ccc2c(c1)CCCN2c1ncnc(Nc2ccc3c(c2)C(=O)OC3)n1
5. CN(c1cccc(Cl)c1)c1ncnc(Nc2ccc3[nH]ccc3c2)n1
6. CN1CCN(c2ccc(Nc3nccc(-c4cn(C)nc4-c4ccc(Cl)cc4)n3)cc2)CC1
7. CCNc1nc(-c2cc(OC)cc(OC)c2)c(-c2ccnc(Nc3ccc(OC4CCN(CCS(C)(=O)=O)CC4)c(F)c3)n2)s1
8. CCc1nc(-c2cc(C)cc(OC)c2)c(-c2ccnc(Nc3ccc(OCCO)c(C#N)c3)n2)s1

1: 6.26; 2: < 4.00; 3: ≥ 7.30; 4: 5.19 to 5.97; 5: > 5.94; 6: 7.38; 7: < 6.00; 8: < 6.00

Would you be so kind as to report pIC50 for each listed record?
1. COc1ccc(Nc2ncnc(NCCNC(C)=O)n2)cc1OC
2. CN(C/C=C/C(=O)N1CCOc2c1ccc1ncnc(Nc3ccc(Oc4ccn5ncnc5c4)c(Cl)c3)c21)C1CCC1
3. C[C@@H]1CN(C)CCN1C/C=C/C(=O)N1CCOc2c1ccc1ncnc(Nc3ccc(OCc4ccccn4)c(Cl)c3)c21

1: < 4.87; 2: ≥ 7.30; 3: ≥ 7.30

Would you be so kind as to report pIC50 for each listed record?
1. Nc1ncnc(Nc2ccc3c(cnn3Cc3cccc(F)c3)c2)c1/C=N/OCCN1CCOCC1
2. CC(C)c1nc(-c2cccc(NS(=O)(=O)c3c(F)cccc3F)c2)c(-c2ccnc(Nc3ccc(N4CCN(C(C)C)CC4)cc3O)n2)s1
3. OCc1cccc(Nc2ncnc(-c3cccnc3NCc3ccccc3)n2)c1
4. CCNc1nc(-c2ccc(F)c(NS(=O)(=O)c3c(F)cccc3F)c2)c(-c2ccnc(Nc3ccc(N4CCOCC4)nc3)n2)s1
5. COc1ccc(Nc2ncnc(Nc3cc(-c4ccccc4)n[nH]3)n2)cc1OC
6. c1cc(Nc2ncnc(Nc3cc(-c4ccco4)[nH]n3)n2)cc(-c2cnco2)c1
7. COc1cc(Nc2ncnc(-n3c(NCc4ccccc4F)nc4ccccc43)n2)cc(OC)c1OC

[7.30, "6.00 to 7.00", "4.93 to 5.04", "> 7.00", "5.21 to 5.99", "> 5.98", "5.16 to 5.32"]

Would you be so kind as to report pIC50 for each listed record?
1. CCO/N=C/c1c(N)ncnc1Nc1ccc2c(ccn2Cc2cccc(F)c2)c1
2. CO[C@@H]1CO[C@@H]2[C@H]1OC[C@@H]2Oc1cc2ncnc(Nc3ccc(F)c(Cl)c3)c2cc1NC(=O)/C=C/CN(C)C
3. COc1ccc(Nc2ncnc(N3CCCc4ccc(C(F)(F)F)cc43)n2)cc1OC
4. CNC(=O)c1cccc(Nc2ncnc(Nc3cc(-c4ccco4)[nH]n3)n2)c1
5. CN(C)C/C=C/C(=O)N1CCOc2c1ccc1ncnc(Nc3ccc(OCc4cc(F)ccc4Cl)cc3)c21
6. Cc1cc(CS(C)(=O)=O)ccc1Nc1nccc(-c2sc(C(C)C)nc2-c2ccc(F)c(NS(=O)(=O)c3c(F)cccc3F)c2)n1
7. CON=Cc1c(N)ncnc1NCc1ccc(Oc2ccccc2)cc1

[7.00, 7.60, "> 6.03", "5.20 to 5.97", "≥ 7.30", "< 6.00", "< 4.00"]

Would you be so kind as to report pIC50 for each listed record?
1. COC(=O)Cc1cccc(Nc2ncnc(-n3c(NCc4ccccc4)nc4ccccc43)n2)c1
2. FC(F)(F)Oc1cccc(Nc2ncnc(Nc3ccc4c(cnn4Cc4ccccc4)c3)n2)c1
3. CC(C)c1nc(-c2cccc(NS(=O)(=O)Cc3ccccc3)c2)c(-c2ccnc(Nc3ccc(N4CCOCC4)c(F)c3)n2)s1
4. COc1cc(Nc2ncnc(-c3cccnc3NCc3ccccc3F)n2)cc(OC)c1OC
5. CN(C)C/C=C/C(=O)N1CCOc2c1ccc1ncnc(Nc3ccc(Oc4cc(Cl)ccc4F)cc3)c21

5.01 to 5.12
5.30 to 6.08
< 6.00
< 5.01
≥ 7.30

Lab note: need pIC50 for COc1cc2c(Nc3ccc(Cl)c(Cl)c3)ncnc2cc1OCc1csc(COC(=O)c2ccccc2)n1 on Receptor tyrosine-protein kinase erbB-2 (Homo sapiens), anyone have it?
> 7.30
